Values from ChEMBL document CHEMBL6083182

target: Inactive tyrosine-protein kinase transmembrane receptor ROR1 (Homo sapiens, UniProt Q01973); experiment: Binding affinity to N-terminal His/GST-tagged recombinant human ROR1 (453 to 783 residues) extracted from baculovirus infected insect cells assessed as dissociation constant by SPR analysis
Sequence (Q01973 whole entry, the tested form may be a part): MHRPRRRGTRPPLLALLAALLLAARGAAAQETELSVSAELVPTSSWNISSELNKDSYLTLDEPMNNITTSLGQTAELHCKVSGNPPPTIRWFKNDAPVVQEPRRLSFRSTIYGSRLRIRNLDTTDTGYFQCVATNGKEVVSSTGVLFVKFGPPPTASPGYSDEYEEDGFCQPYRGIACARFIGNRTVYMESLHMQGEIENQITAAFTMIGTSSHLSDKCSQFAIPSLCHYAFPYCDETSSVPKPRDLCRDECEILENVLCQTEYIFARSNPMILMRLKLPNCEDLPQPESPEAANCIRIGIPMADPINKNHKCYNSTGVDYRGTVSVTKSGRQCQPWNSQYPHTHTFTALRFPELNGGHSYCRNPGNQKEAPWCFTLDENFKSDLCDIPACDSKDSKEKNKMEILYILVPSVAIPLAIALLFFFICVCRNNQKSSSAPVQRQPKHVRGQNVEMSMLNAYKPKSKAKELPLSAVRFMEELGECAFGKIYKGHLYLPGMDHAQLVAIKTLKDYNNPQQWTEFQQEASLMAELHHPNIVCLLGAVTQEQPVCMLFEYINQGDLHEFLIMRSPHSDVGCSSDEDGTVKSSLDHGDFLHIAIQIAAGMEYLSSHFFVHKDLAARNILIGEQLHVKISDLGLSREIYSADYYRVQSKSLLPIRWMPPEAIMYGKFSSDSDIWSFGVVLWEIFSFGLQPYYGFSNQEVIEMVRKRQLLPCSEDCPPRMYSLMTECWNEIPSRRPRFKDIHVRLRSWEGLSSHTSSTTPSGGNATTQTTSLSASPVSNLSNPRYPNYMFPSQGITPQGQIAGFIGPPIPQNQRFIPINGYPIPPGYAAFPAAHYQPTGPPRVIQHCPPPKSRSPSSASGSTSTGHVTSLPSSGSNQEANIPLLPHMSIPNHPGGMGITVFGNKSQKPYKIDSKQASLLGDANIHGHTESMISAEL
# Kd listing for each entry below
observable: Kd (nM)

1. H-SDINDYPIPGYSTYYGDF-NH2	2.98
2. H-INSGPSDINDYPIPGYSTYYGDF-NH2	713
3. H-INSGPSDINDRQIPGYSTYWGDF-NH2	261
4. H-SDINDRQIPGYSTYWGDF-NH2	1.57
5. H-INSGPSDINDYPI-NH2	40.5
6. H-GYSTYWGDF-NH2	147
7. H-INSGPGYSTYYGDF-NH2	1.21
8. H-SDINDRQI-NH2	26.5
